Biological target: T1, MUC1 on HCT116/MUC1 cells (UniProt P15941 24-1255, limits assumed)
T1 construct: whole, on cells; also called MUC1 overexpressed cell line
T1 sequence (P15941 24-1255 limits assumed): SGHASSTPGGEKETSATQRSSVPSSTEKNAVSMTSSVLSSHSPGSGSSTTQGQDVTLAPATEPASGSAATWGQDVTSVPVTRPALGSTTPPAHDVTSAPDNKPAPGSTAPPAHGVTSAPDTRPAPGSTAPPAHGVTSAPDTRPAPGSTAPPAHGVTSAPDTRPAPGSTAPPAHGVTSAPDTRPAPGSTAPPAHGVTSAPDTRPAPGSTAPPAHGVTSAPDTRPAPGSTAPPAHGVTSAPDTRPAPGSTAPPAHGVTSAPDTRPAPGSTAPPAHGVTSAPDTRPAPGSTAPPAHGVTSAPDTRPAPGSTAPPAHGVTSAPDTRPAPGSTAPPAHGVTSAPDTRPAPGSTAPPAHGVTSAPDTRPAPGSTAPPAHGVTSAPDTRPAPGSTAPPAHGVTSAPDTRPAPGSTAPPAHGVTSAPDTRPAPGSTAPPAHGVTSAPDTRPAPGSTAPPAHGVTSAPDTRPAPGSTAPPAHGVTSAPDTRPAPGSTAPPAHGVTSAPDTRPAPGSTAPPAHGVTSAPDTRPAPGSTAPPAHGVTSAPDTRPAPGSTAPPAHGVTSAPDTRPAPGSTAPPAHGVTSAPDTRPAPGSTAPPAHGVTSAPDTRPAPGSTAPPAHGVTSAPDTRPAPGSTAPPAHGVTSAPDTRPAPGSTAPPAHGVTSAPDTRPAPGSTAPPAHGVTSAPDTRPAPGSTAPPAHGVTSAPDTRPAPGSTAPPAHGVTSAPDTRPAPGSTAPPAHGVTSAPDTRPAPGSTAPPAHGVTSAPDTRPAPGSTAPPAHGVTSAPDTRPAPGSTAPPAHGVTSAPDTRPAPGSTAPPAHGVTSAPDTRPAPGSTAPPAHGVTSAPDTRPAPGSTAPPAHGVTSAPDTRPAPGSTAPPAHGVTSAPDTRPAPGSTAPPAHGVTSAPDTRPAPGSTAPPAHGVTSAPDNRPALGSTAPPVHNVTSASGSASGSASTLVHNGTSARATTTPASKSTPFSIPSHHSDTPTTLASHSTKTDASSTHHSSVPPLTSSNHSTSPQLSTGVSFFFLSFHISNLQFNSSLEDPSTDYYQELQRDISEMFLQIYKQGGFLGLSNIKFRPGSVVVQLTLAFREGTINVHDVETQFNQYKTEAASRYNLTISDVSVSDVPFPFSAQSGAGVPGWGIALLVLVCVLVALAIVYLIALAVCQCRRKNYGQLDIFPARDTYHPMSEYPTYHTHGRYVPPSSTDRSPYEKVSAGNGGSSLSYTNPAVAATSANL
Experiment: FACS titration, HCT116/MUC1 cells, antibody at 7.812 nM
geometric mean values by entry
// no unit, no text: just the number

Please report the recorded geometric mean for VH4 + VL1 (antibody, V domains shown, Humanized IgG expressed in HEK293; also called humanized antibody VH4+VL1) VH: QVQLVQSGAEVKKPGATVKISCKVSGYAFSNFWMNWVQQAPGKGLEWMGQIYPGDGDTNYNGKFKGRVTITADTSTDTAYMELSSLRSEDTAVYYCARSYYRSAWFAYWGQGTLVTVSR VL: EIVLTQSPDFQSVTPKEKVTITCRASQSIGTSIHWYQQKPDQSPKLLIKYASESISGVPSRFSGSGSGTDFTLTINSLEAEDAATYYCQQSNNWPLTFGQGTKVEIK .
8.87

I'd like to know its geometric mean. The binder in question is VH2 + VL3 (antibody, V domains shown, Humanized IgG expressed in HEK293; also called humanized antibody VH2+VL3) VH: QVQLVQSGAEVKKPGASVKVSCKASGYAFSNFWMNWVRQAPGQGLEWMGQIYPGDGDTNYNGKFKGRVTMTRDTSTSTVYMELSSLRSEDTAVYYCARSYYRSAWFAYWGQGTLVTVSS VL: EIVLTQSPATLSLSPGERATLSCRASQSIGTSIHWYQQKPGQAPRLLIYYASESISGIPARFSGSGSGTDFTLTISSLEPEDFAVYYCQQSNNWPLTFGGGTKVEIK
11.8
